measurement-protocol: Toxicity in rat RBL2H3 cells
Type: cell-based, RBL-2H3
setup-conditions: read-out: MTD

compound | MNTC, µM
CCCCCCCCCCCCCCCCCCOC[C@H](COP(=O)([O-])OCC[N+](C)(C)C)OC [(R)-EDELFOSINE] | 25
CCCCCCCCCCCCCCCCOP(=O)([O-])OC1CC2CCC(C1)[N+]2(C)C (centres undefined) | 25
CCCCCCCCCCCCCCCCSCC(COC)COP(=O)([O-])OCC[N+](C)(C)C (centres undefined) | 50
CCCCCCCCCCCCCCCCOP(=O)([O-])OCC[N+](C)(C)C | 25
